Test system: Methicillin Resistant Staphylococcus aureus strain USA 300, NRS384
Assay: Minimum inhibitory concentration, broth micro-dilution (CLSI), S. aureus
Assay type: cell-based
Settings: Staphylococcus aureus, MRSA / NRS 384 / USA300, 22 h, MRSA USA 300 NRS384; 35° C., 22 hours; read-out: MIC (μg/mL) S. aureus
Threshold check on MIC: strictly below 0.2 µg/mL is YES; on or above 0.2 µg/mL is NO.

# count of solved cases: 4
{"mol.smiles": "CCCCCCCCCNCCCC(=O)N(C)[C@@H]1C(=O)N[C@@H](C)C(=O)N[C@H](C(=O)NCC#N)Cc2ccc(OCCN)c(c2)-c2cc1ccc2OCCN", "class": "NO"}
{"mol.smiles": "CCCCc1ccc(-c2ccc(C(=O)N[C@@H](CCCN)C(=O)N(C)[C@@H]3C(=O)N[C@@H](C)C(=O)N[C@H](C(=O)NCC#N)Cc4ccc(OCCN)c(c4)-c4cc3ccc4OCCN)cc2)cc1", "class": "YES"}
{"mol.smiles": "CCCCc1ccc(-c2ncc(C(=O)N[C@@H](CCCN)C(=O)N(C)[C@@H]3C(=O)N[C@@H](C)C(=O)N[C@H](C(=O)NCC#N)Cc4ccc(OCCN)c(c4)-c4cc3ccc4OCCN)c(C)n2)cc1", "class": "YES"}
{"mol.smiles": "Cc1cc(OCC2(C)CCCCC2)ccc1C(=O)N[C@@H](CCN)C(=O)N(C)[C@@H]1C(=O)N[C@@H](C)C(=O)N[C@H](C(=O)NCC#N)Cc2ccc(OCCN)c(c2)-c2cc1ccc2OCCN", "class": "YES"}

Next item in the queue.
Find out if reported MIC for CCCCc1ccc(-c2ccc(C(=O)N[C@@H](Cc3c[nH]cn3)C(=O)N(C)[C@@H]3C(=O)N[C@@H](C)C(=O)N[C@H](C(=O)NCC#N)Cc4ccc(OCCN)c(c4)-c4cc3ccc4OCCN)cc2)cc1 is less than 0.2 µg/mL
YES

====

Target: SpsB (Staphylococcus aureus signal peptidase) (Staphylococcus aureus)
Construct: This assay uses a suspension of Staphylococcus aureus cells as a source of SpsB instead of recombinant SpsB protein; endogenous in cells; host or cells: S. aureus, USA300 background, overexpressing SpsB (whole-cell suspension from frozen pellets)
Sequence (P0A070 whole entry): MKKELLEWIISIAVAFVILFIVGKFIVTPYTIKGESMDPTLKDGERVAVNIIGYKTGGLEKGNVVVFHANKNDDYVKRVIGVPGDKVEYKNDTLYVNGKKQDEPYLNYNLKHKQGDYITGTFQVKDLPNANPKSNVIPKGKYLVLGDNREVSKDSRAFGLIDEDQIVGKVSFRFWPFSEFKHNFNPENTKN
Experiment: cell-based
Format: biochemical
Details: SpsB IC50, whole-cell S. aureus (USA300 background, overexpressing SpsB) as SpsB source; fluorogenic peptide substrate, kinetic read 30 min
Classification field. Basis: IC50. Definitions: A = under 1 nM, B = from 1 nM up to 2 nM, C = 2 nM and over

# count of solved cases: 3
{"mol.smiles": "CCCCc1cnc(-c2ccc(C(=O)N[C@@H](CCN)C(=O)N(C)[C@@H]3C(=O)N[C@@H](C)C(=O)N[C@H](C(=O)NCC#N)Cc4ccc(OCCN)c(c4)-c4cc3ccc4OCCN)c(C)c2)nc1", "class": "A"}
{"mol.smiles": "Cc1cc(CCC2CCCCC2)ccc1C(=O)N[C@@H](CCN)C(=O)N(C)[C@@H]1C(=O)N[C@@H](C)C(=O)N[C@H](C(=O)NCC#N)Cc2ccc(OCCN)c(c2)-c2cc1ccc2OCCN", "class": "B"}
{"mol.smiles": "C[C@@H]1NC(=O)[C@@H](N(C)C(=O)[C@H](CCCCN)NC(=O)c2ccc(-c3ccc(Cl)cc3)cc2)c2ccc(OCCN)c(c2)-c2cc(ccc2O)C[C@@H](C(=O)N[C@@H](C)C#N)NC1=O", "class": "C"}

Returns: class label. Input: Cc1cc(C#Cc2ccccc2)ccc1C(=O)N[C@@H](CCN)C(=O)N(C)[C@@H]1C(=O)N[C@@H](C)C(=O)N[C@H](C(=O)NCC#N)Cc2ccc(OCCN)c(c2)-c2cc1ccc2OCCN
B

Returns: class label. Input: CCCCc1ccc(-c2ccc(C(=O)N[C@@H](CN)C(=O)N(C)[C@@H]3C(=O)N[C@@H](C)C(=O)N[C@H](C(=O)NCC#N)Cc4ccc(OCCN)c(c4)-c4cc3ccc4OCCN)cc2)cc1
B

Returns: class label. Input: CCCCCCCCCCNCCC(=O)N[C@@H](CCCCN)C(=O)N(C)[C@@H]1C(=O)N[C@@H](C)C(=O)N[C@H](C(=O)NCC#N)Cc2ccc(O)c(c2)-c2cc1ccc2OCCN
A

Returns: class label. Input: COc1ccc(-c2ccc(C(=O)N[C@@H](CCCCN)C(=O)N(C)[C@@H]3C(=O)N[C@@H](C)C(=O)N[C@H](C(=O)NCC#N)Cc4ccc(OCCN)c(c4)-c4cc3ccc4OCCN)cc2)cc1OC
C

Returns: class label. Input: CCCCc1ccc(-c2ccc(C(=O)N[C@@H](CCCCN)C(=O)N(C)[C@@H]3C(=O)N[C@@H](C)C(=O)N[C@H](C(=O)N[C@H](C)C#N)Cc4ccc(OCCN)c(c4)-c4cc3ccc4OCCN)cc2)cc1
C

Returns: class label. Input: CCCCCCCCCCCCCC(=O)N[C@@H](CCN)C(=O)N(C)[C@@H]1C(=O)N[C@@H](C)C(=O)N[C@H](C(=O)NCC#N)Cc2ccc(OCC)c(c2)-c2cc1ccc2OCCN
A

Returns: class label. Input: C[C@@H]1NC(=O)[C@@H](N(C)C(=O)[C@H](CCCCN)NC(=O)c2ccc(-c3ccc(Cl)cc3)cc2)c2ccc(OCCN)c(c2)-c2cc(ccc2OCCN)C[C@@H](C(=O)NCC#N)NC1=O
B

Returns: class label. Input: CCCCCc1ncc(C(=O)N[C@@H](CCN)C(=O)N(C)[C@@H]2C(=O)N[C@@H](C)C(=O)N[C@H](C(=O)NCC#N)Cc3ccc(OCCN)c(c3)-c3cc2ccc3OCCN)c(C)n1
C

====

Catalogue of MIC values
Tested on: Methicillin Resistant Staphylococcus aureus strain USA 300, NRS384
Assay: Minimum inhibitory concentration, broth micro-dilution (CLSI), S. aureus
Type: cell-based
Settings: Staphylococcus aureus, MRSA / NRS 384 / USA300, 22 h, MRSA USA 300 NRS384; 35° C., 22 hours; read-out: MIC (μg/mL) S. aureus
Just so you know, I need the unit written after the number.

{"molecule": "CCCCC1CCC(C(=O)N[C@@H](CCN)C(=O)N(C)[C@@H]2C(=O)N[C@@H](C)C(=O)N[C@H](C(=O)NCC#N)Cc3ccc(OCCN)c(c3)-c3cc2ccc3OCCN)CC1 (some centres unmarked)", "value.reported": "0.19 µg/mL"}
{"molecule": "CCCCCCCCc1ccc(C(=O)N[C@@H](CCCCN)C(=O)N(C)[C@@H]2C(=O)N[C@@H](C)C(=O)N[C@H](C(=O)NCC#N)Cc3ccc(OC)c(c3)-c3cc2ccc3OC)cc1", "value.reported": "3 µg/mL"}
{"molecule": "CCCCCCOc1ccc(N2CCN(c3ccc(C(=O)N[C@@H](CCN)C(=O)N(C)[C@@H]4C(=O)N[C@@H](C)C(=O)N[C@H](C(=O)NCC#N)Cc5ccc(OCCN)c(c5)-c5cc4ccc5OCCN)cc3)CC2)cc1", "value.reported": "0.063 µg/mL"}
{"molecule": "CCCCCCCCCCCC(=O)N(C)[C@@H](CCN)C(=O)N(C)[C@@H]1C(=O)N[C@@H](C)C(=O)N[C@H](C(=O)NCC#N)Cc2ccc(OCCN)c(c2)-c2cc1ccc2OCCN", "value.reported": "0.13 µg/mL"}

Now examine the next entry.
Using the record for CCCCCCCCc1ccc(C(=O)N[C@@H](CCN)C(=O)N(C)[C@@H]2C(=O)N[C@@H](C)C(=O)N[C@H](C(=O)NCC#N)Cc3ccc(OCCN)c(c3)-c3cc2ccc3OCCN)c(OC)c1 , report its MIC.
0.19 µg/mL

====

Biological target: SpsB (Staphylococcus aureus signal peptidase) (Staphylococcus aureus)
Construct: This assay uses a suspension of Staphylococcus aureus cells as a source of SpsB instead of recombinant SpsB protein; endogenous in cells; host or cells: S. aureus, USA300 background, overexpressing SpsB (whole-cell suspension from frozen pellets)
Assay: cell-based
Type: biochemical
Details: SpsB IC50, whole-cell S. aureus (USA300 background, overexpressing SpsB) as SpsB source; fluorogenic peptide substrate, kinetic read 30 min
Catalogue of IC50 values
Respond numerically; units are nM and should not be typed.

{"mol.smiles": "CCCCCCOCc1ccc(C(=O)N[C@@H](CCN)C(=O)N(C)[C@@H]2C(=O)N[C@@H](C)C(=O)N[C@H](C(=O)NCC#N)Cc3ccc(OCCN)c(c3)-c3cc2ccc3OCCN)c(C)c1", "IC50 (nM)": 0.82}
{"mol.smiles": "CCCCCCCOc1cc(C)c(C(=O)N[C@@H](CCN)C(=O)N(C)[C@@H]2C(=O)N[C@@H](C)C(=O)N[C@H](C(=O)NCC#N)Cc3ccc(OCCN)c(c3)-c3cc2ccc3OCCN)c(C)c1", "IC50 (nM)": 1.2}

Using the record for CCCCCCc1ccc(C(=O)N[C@@H](CCC(N)=O)C(=O)N(C)[C@@H]2C(=O)N[C@@H](C)C(=O)N[C@H](C(=O)NCC#N)Cc3ccc(OCCN)c(c3)-c3cc2ccc3OCCN)c(C)c1 , report its IC50.
1.1

Using the record for C[C@@H]1NC(=O)[C@@H](N(C)C(=O)[C@H](CCN)NC(=O)c2ccc(-c3ccc4c(c3)CCCC4)cc2Cl)c2ccc(OCCN)c(c2)-c2cc(ccc2OCCN)C[C@@H](C(=O)NCC#N)NC1=O , report its IC50.
0.99

Using the record for CCCCc1ccc(C#CC(=O)N[C@@H](CCN)C(=O)N(C)[C@@H]2C(=O)N[C@@H](C)C(=O)N[C@H](C(=O)NCC#N)Cc3ccc(OCCN)c(c3)-c3cc2ccc3OCCN)cc1 , report its IC50.
1.6

Using the record for CCCCCCCCCCCCCC(=O)N[C@@H](CCCCN)C(=O)N(C)[C@@H]1C(=O)N[C@@H](C)C(=O)N[C@H](C(=O)N[C@@H](C)C#N)Cc2ccc(OCCN)c(c2)-c2cc1ccc2OCCO , report its IC50.
0.8

Values from patent US20180327367A1
